value.type: melting point

Which value of melting point has been reported for CCCC(CCC)c1ccc(N(Cc2ccc3nc(-c4csc(CN(CC(=O)O)Cc5nc(C(C)(C)C)cs5)n4)oc3c2)C(C)C)cc1 [Example 1-138] in the records? 98 to 100 °C

Which value of melting point has been reported for CN(Cc1nc(-c2ccc(N(C)Cc3ccc(C4CCCCC4)cc3)cc2)cs1)C(=O)NCC(=O)O [Example 3-109] in the records? 149 to 150 °C

Which value of melting point has been reported for CCCC(CCC)c1ccc(COc2ccc(-c3csc(CN4CCC(c5ccccc5C(=O)O)CC4)n3)cc2)cc1 [Example 1-164] in the records? 170 to 172 °C

Which value of melting point has been reported for CCC(CC)c1ccc(N(Cc2ccc(-c3csc(COc4ccc(C(=O)O)cn4)n3)cc2)C(C)C)cc1 [Example 1-3] in the records? 177 to 181 °C

----------
Target: Recombinant human protein tyrosine phosphatase 1B (Homo sapiens, UniProt P18031)
Construct: purchased UBI
Sequence (P18031 1-435): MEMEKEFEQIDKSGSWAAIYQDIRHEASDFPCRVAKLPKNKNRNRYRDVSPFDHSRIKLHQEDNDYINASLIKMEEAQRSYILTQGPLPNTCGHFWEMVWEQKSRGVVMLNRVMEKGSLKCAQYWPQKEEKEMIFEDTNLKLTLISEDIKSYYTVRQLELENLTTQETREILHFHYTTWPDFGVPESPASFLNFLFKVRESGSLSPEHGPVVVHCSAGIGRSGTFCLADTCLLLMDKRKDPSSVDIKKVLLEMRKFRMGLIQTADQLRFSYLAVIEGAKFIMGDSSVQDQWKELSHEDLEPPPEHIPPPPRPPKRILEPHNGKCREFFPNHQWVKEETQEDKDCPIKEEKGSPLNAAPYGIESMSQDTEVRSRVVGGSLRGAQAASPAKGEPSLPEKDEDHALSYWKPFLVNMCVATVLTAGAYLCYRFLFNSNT
Test: Protein tyrosine phosphatase 1B inhibitory activity (malachite green, phosphorylated insulin receptor peptide substrate)
Assay type: biochemical
Details: recombinant human PTP1B, 60 min room temperature, absorbance 650 nm
value.type: IC50

Which value of IC50 has been reported for CCCC(CCC)c1ccc(OCc2ccc(-c3csc(CN(CC(=O)O)Cc4ccc(-n5ccnc5)cc4)c3)cc2)cc1 [Example 4-91] in the records? 0.17 µM

Which value of IC50 has been reported for CCCC(CCC)c1ccc(OCc2ccc(-c3ccc(CN(CC(=O)O)Cc4cc(C(F)(F)F)ccc4Cl)s3)cc2)cc1 [Example 4-75] in the records? < 0.1 µM

Which value of IC50 has been reported for CCCC(CCC)c1ccc(COc2ccc(-c3csc(CN(CC(=O)O)Cc4ccccc4)n3)cc2)cc1 [Example 3-10] in the records? 0.2 µM

Which value of IC50 has been reported for C=CCn1c(CN(CC(=O)O)Cc2ccc(-c3ccc(COc4ccc(C(CCC)CCC)cc4)cc3)s2)nc2ccccc21 [Example 4-106] in the records? 0.16 µM

Which value of IC50 has been reported for CCC(CC)c1ccc(COc2ccc(-c3csc(CN(CC(=O)O)Cc4ccc(F)cc4)n3)cc2)cc1 [Example 3-14] in the records? 0.38 µM

Which value of IC50 has been reported for CCCC(CCC)c1ccc(OCc2ccc(-c3csc(CN(CC(=O)O)Cc4nc5ccccc5n4C)c3)cc2)cc1 [Example 4-30] in the records? 0.17 µM

Which value of IC50 has been reported for CCCC(CCC)c1ccc(OCc2ccc(-c3csc(CN(CC(=O)O)Cc4ccc5[nH]ccc5n4)c3)cc2)cc1 [Example 4-90] in the records? 0.16 µM
